Each recorded value in this set is attributed to BindingDB's records for doi:10.1074/jbc.M112.356576.

# pKi per entry
- Test system: Bifunctional ligase/repressor BirA (Staphylococcus aureus, UniProt A0A3A5LBF0)
- Sequence (A0A3A5LBF0 whole entry): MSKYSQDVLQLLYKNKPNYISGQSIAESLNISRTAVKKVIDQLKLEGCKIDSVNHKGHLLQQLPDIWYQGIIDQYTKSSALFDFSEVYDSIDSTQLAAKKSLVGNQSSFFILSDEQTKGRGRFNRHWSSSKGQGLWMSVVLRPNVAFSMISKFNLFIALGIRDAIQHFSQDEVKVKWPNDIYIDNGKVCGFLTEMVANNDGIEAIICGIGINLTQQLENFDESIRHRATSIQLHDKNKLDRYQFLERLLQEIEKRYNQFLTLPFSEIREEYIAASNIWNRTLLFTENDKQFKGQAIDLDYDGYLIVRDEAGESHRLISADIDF
- Experimental protocol: Enzyme Inhibition Assay
Scale note: pKi = -log10(concentration in M).

• O=C1NC2CS[C@@H](CCCCCc3cn(CCCCOc4ccc5ccccc5c4)nn3)C2N1 (some centres undefined) = 5.93

Form field pKi, entry Nc1ncnc2c1NCN2[C@@H]1O[C@H](Cn2cc(CCCCC[C@@H]3SCC4NC(=O)NC43)nn2)[C@@H](O)[C@H]1O (some centres undefined) : 5.93

====

- Test system: Bifunctional ligase/repressor BirA (Staphylococcus aureus)
- Experimental protocol: Enzyme Inhibition Assay
pKi: −log10 of the molar value.
Reported pKi values for a set of compounds

• Cc1ccc2oc(=O)n(CCCn3cc(COCCC[C@@H]4SCC5NC(=O)NC54)nn3)c2c1 (some centres undefined) = < 5.00
• CC(C)(C)C(=O)OCCn1cc(CCCCC[C@@H]2SCC3NC(=O)NC32)nn1 (some centres undefined) = < 5.00
• O=C1NC2CS[C@@H](CCCCCc3cn(CCCOc4ccc5ccccc5c4)nn3)C2N1 (some centres undefined) = < 5.00

Now for a further compound.
Entry Cc1ccc2oc(=O)n(CCCCn3cc(CCCCC[C@@H]4SCC5NC(=O)NC54)nn3)c2c1 (some centres undefined) ; assay system Bifunctional ligase/repressor BirA (Staphylococcus aureus); pKi recorded at 7.05
